assay: Plasma pharmacokinetics of pracinostat; format: in vivo, human; conditions: human, plasma, po, 100 mg, Cmax, Day 15, 100 mg oral, n=3, mean±SD
measured.property: Cmax (ng/mL)
One number for each entry, in ng/mL.

INPUT: Please report the recorded Cmax for CCCCc1nc2cc(/C=C/C(=O)NO)ccc2n1CCN(CC)CC .
OUTPUT: 314

====

assay: Plasma pharmacokinetics of pracinostat; type: in vivo, human; settings: human, plasma, po, 80 mg, t1/2, Day 15, 80 mg oral, n=3, mean±SD
measured.property: half-life (h)
Give bare numbers, in h.

INPUT: Requested field: half-life. Item: CCCCc1nc2cc(/C=C/C(=O)NO)ccc2n1CCN(CC)CC
OUTPUT: 9.3

Provenance of the data: paper PMC5901648
